- System: U251 CNS
- ASSAY COMMENT: NCI tumour cell line growth inhibition, 48 h
PARAMETER: TGI

Answered examples (2):
O=C1c2cccc3cc([N+](=O)[O-])cc(c23)C(=O)N1O    > 100 µM
O=C(O)Cc1ccc2c(c1O)C(=O)c1c(ccc(CC(=O)O)c1O)C2=O    > 100 µM

Give TGI for all molecules that follow.
1. CC(=O)/C=C/C1=C(c2ccsc2)c2ccccc2CC1
2. O=c1[nH]c2c(O)cccc2c2cc3c(c(O)c12)OCO3
3. CON

Found:
["48.8 µM", "63.4 µM", "> 100 µM"]

###

- System: SF-295 CNS
- ASSAY COMMENT: NCI tumour cell line growth inhibition, 48 h
Please go through the items and note down their TGI.

CCCOCN1COCN=C1NC#N    > 100 µM

Give TGI for all compounds that follow.
1. O=C(Nc1ccc(S(=O)(=O)NC2CCCCCC2)cc1)C(c1ccccc1)S(=O)(=O)c1ccc(F)cc1 (configuration not stated)
2. O=C1N[C@@H]2c3c(Br)sc(Br)c3C(=O)[C@@H]2N1
3. COc1c2ccoc2c(S(=O)(=O)Nc2ccc(Cl)cc2)c2oc(C)cc(=O)c12
4. CC(=O)NNc1nc(C)c(C(/C=C/c2ccc(NC(C)=O)cc2)=N/NS(=O)(=O)c2ccc(C)cc2)s1
5. CC(=O)OCC(=O)C1(O)C(C)CC2C3C=C(C)C4=Cc5c(cnn5-c5ccccc5)CC4(C)C3C(O)CC21C (configuration not stated)
6. O=C1C=C(Nc2ccccc2C(=O)CC(=O)C(=O)Nc2ccc(Cl)c(Cl)c2)c2ccccc2C1=O
7. CCOc1ccc(NC(=O)CCC(=O)NN)cc1

Found:
1. 2.92 µM
2. 29.5 µM
3. > 100 µM
4. > 100 µM
5. 2.63 µM
6. > 100 µM
7. > 100 µM

Give TGI for all compounds that follow.
1. CC[N+](CC)(CC)/C(=N/S(=O)(=O)c1cc(C)c(Cl)cc1S)[N-]S(=O)(=O)c1ccc(Cl)cc1
2. O=C(CCc1cccc(O)c1)NCCc1cccc(OCc2ccccc2)c1
3. COc1ccc(C2S/C(=C\c3cccc(O)c3)C(=O)N2NC(=O)Cc2ccccc2)cc1 (configuration not stated)

Found:
1. > 100 µM
2. 32.9 µM
3. > 100 µM

Give TGI for all compounds that follow.
1. C[N+](C)(Cc1ccc(NC(=O)CCCC(=O)ON2C(=O)CCC2=O)cc1)c1ccccc1
2. CON
3. CCC[CH2][Sn]1([CH2]CCC)[O]C(=O)c2cc(C)ccc2[O]1
4. FC(F)(F)C1(C(F)(F)F)C2CCC3(CC(F)(F)C(F)(F)S3)C1C2 (configuration not stated)
5. CSc1ccc(C2=NN(C(=O)c3ccc(N)cc3)C(c3ccc(F)cc3)C2)cc1 (configuration not stated)
6. O=C(O)c1cc(N(Cc2ccccc2O)Cc2cc(O)ccc2O)ccc1O
7. CC(C)c1cccc(C(C)C)c1NC1=CC(=O)C(=O)c2ccccc21
8. N#Cc1ccccc1Nc1ccccc1S

Found:
["> 100 µM", "> 100 µM", "1.99 µM", "> 100 µM", "27.9 µM", "> 100 µM", "> 100 µM", "65.4 µM"]

###

- Test system: PC-3 prostate
- ASSAY COMMENT: NCI tumour cell line growth inhibition, 48 h
PARAMETER: TGI

Answered examples (3):
Oc1[nH]c2ccccc2c1N=NC(=S)N1CCCC1    57.8 µM
CCN(CC)c1ccc2nc3c4ccccc4c(=NC(=O)c4ccccc4-c4c5ccc(N(CC)CC)cc5[o+]c5cc(N(CC)CC)ccc45)cc-3oc2c1    > 20.6 µM
N#CC(c1ccccc1)(c1ccccc1)[C@@H](c1ccccc1)[C@H](Cc1ccccc1)NS(=O)(=O)c1ccccc1    > 100 µM

Give TGI for all compounds that follow.
1. CC(C)N(C[C@H]1O[C@@H](n2cnc3c(N)ncnc32)[C@H](O)[C@@H]1O)C1CC(CCc2nc3ccc(C(C)(C)C)cc3[nH]2)C1 (stereo partly specified)
2. CC(C)(C)c1cc(C(C)(C)C)c2sc(=S)oc2c1O
3. Cc1cc(C)c(NS(=O)c2cccc([N+](=O)[O-])c2)c(C)c1 (stereo unspecified)
4. O=C(CC1(O)C(=O)Nc2c(Cl)ccc(Cl)c21)c1ccc(C2CC2)cc1 (stereo unspecified)
5. CCCCCCCCCC(=O)CC(=O)c1c(O)cc(O)cc1O

Found:
1. > 100 µM
2. 13.8 µM
3. > 100 µM
4. 16.6 µM
5. 41.8 µM

Give TGI for all compounds that follow.
1. CCOc1ccc2c(c1)NC(=O)C(C1OC(c3ccccc3)=CC1=O)S2 (stereo unspecified)
2. COc1ccc2c(c1)CC[C@@H]1[C@@H]2CC[C@]2(C)[C@@H](O)/C(=C/c3ccncc3)C[C@@H]12
3. CCOC(=O)CCc1c(C)[nH]c2c(C)c3c([nH]c4ccc(Cl)cc43)c(C)c2c1=O
4. O=[N+]([O-])c1ccc(N2N=C(c3ccc4ccccc4c3O)CC2c2ccc(Cl)cc2Cl)c([N+](=O)[O-])c1 (stereo unspecified)
5. Nc1cccc2nsnc12
6. CNC(=O)OCCN1c2ccccc2Sc2ccccc21
7. Cc1cc(Br)cc(C)c1NC(=O)C(=O)C1C(=O)C(CC2C(=O)c3ccccc3C2=O)C(=O)CC1(C)C (stereo unspecified)
8. Oc1[nH]c2ccc(Cl)cc2c1/C=c1/ccc2c(c1)N=C(c1cc(F)cc(F)c1)N=2

Found:
51.4 µM
25.5 µM
> 100 µM
> 100 µM
> 100 µM
> 100 µM
> 100 µM
> 100 µM

Give TGI for all compounds that follow.
1. N#Cc1c(Oc2ccc(F)c(NC(=O)Cc3cccc(C(F)(F)F)c3)c2)ccc2nc(NC(=O)C3CC3)sc12
2. CO[C@]12C[C@H](CNC(=O)c3cc(Br)c(Br)[nH]3)O[C@H]1NC(=O)N2
3. O=C(Nc1ccc(S(=O)(=O)NC2CCCCCC2)cc1)C(c1ccccc1)S(=O)(=O)c1ccc(F)cc1 (stereo unspecified)
4. CCOc1cc(/C=N\NC(=O)N/N=C/c2ccc(O)c(OCC)c2)ccc1O
5. COc1cnc2c(c1)C(=O)c1c-2n(CCCN2CCN(CCO)CC2)c(=O)c2cc([N+](=O)[O-])ccc12

Found:
1: > 100 µM; 2: > 100 µM; 3: 2.19 µM; 4: > 100 µM; 5: 92.6 µM

###

- System: NCI-H23 lung
- ASSAY COMMENT: NCI tumour cell line growth inhibition, 48 h
PARAMETER: TGI

Answered examples (2):
ClCC1(CCl)COC1    > 100 µM
O=C1C=C(Nc2ccccc2C(=O)CC(=O)C(=O)Nc2ccc(Cl)c(Cl)c2)c2ccccc2C1=O    > 100 µM

Give TGI for all compounds that follow.
1. CC(C)N(C[C@H]1O[C@@H](n2cnc3c(N)ncnc32)[C@H](O)[C@@H]1O)C1CC(CCc2nc3ccc(C(C)(C)C)cc3[nH]2)C1 (some centres undefined)
2. O=[N+]([O-])c1ccc(-c2ccccc2)c([As](=O)(O)O)c1
3. C[C@@H](Oc1cc(-c2cnn(C3CC4(CCCNC4)C3)c2)cnc1N)c1c(Cl)ccc(F)c1Cl (some centres undefined)
4. CCOC(=O)C(Cc1ccc(OC)cc1)C(=O)OCC
5. O=c1cc(-c2nc3ccccc3[nH]2)[nH]c2nc(-c3nc4ccccc4[nH]3)cc(-c3ccc(Cl)cc3)c12

Found:
["> 100 µM", "88.2 µM", "3.41 µM", "14.9 µM", "> 100 µM"]

Give TGI for all compounds that follow.
1. C=C1C(=O)OC2CC3(C)OC3C3OC3C3=CC(OC3=O)C12 (centres undefined)
2. CS[C@@]1(C(=O)Nc2ccc3[nH]nc(-c4ccc(OC(C)C)nc4)c3c2)CCN(CC(=O)N2CC=C(c3ccc(-c4ncn(C)n4)cc3)CC2)C1
3. CN(CC#N)C(=O)Cc1ccc([N+](=O)[O-])cc1

Found:
32.6 µM
> 100 µM
> 10 µM

###

- Test system: OVCAR-8 ovarian
- ASSAY COMMENT: NCI tumour cell line growth inhibition, 48 h
PARAMETER: GI50

Answered examples (5):
C[C@@H]1CN2[C@H]3[C@@H]1CC[C@]31CCC(=O)O[C@]1(C)[C@@H]1CC[C@H]3CCC=C3[C@@H]12    > 70 µM
C=C(C)[C@@H]1CC[C@]2(C)[C@H](C=CC3=C4C[C@@](C)(CO)CC[C@]4(C)CC[C@]32C)[C@@]1(C)CCCN    2.13 µM
CCCCCCC1N=C(N)N=C(N)N1c1ccc(Cl)cc1 (centres undefined)    6.43 µM
COc1cc(C2C(C#N)=C(N)Oc3cc4c(cc32)OCO4)cc2c1OCO2 (centres undefined)    0.466 µM
COc1ccc(-n2sc(=O)n(Cc3ccc(COC(=O)C(C)c4ccc(CC(C)C)cc4)cc3)c2=O)cc1 (centres undefined)    2.81 µM

Give GI50 for all compounds that follow.
1. CC1(C)CC2CC(C)(CN2c2ncnc3ccc(Br)cc23)C1 (centres undefined)
2. C/C(=N\Nc1cccc(Cl)n1)c1ccccn1

Found:
1. 12.3 µM
2. 0.51 µM

Give GI50 for all compounds that follow.
1. CCOC(=O)CNC(=O)C(CSC(=O)N(C)O)NC(=O)CCC(N)C(=O)O (centres undefined)
2. CN(NC(=O)CC(=O)NN(C)C(=S)c1ccc(Cl)cc1)C(=S)c1ccc(Cl)cc1

Found:
1: > 2000 µM; 2: 23.7 µM
